- TARGET_ENTITY: Lysine-specific demethylase 4A (Homo sapiens)
- ASSAY_METHOD_TEXT: qHTS Assay for Inhibitors of JMJD2A-Tudor Domain; note: nearly all actives have a fitted effect of over 50% in size
- RUN_CONDITIONS: AlphaScreen JMJD2A-Tudor / H3K4me3 peptide binding; series mostly up to 114 µM
Screen size: about 390,000 compounds; about 17,000 (4.4%) were called active. Another 8% or so got no clear call; they are omitted. Calls come from the whole dose curve; as a rule, active = well fitted inhibition curve with a large enough effect; inconclusive = small, poorly fitted or top-dose-only effect; inactive = no such curve, though single readings can be large or run the other way. The full list was thinned out, with actives kept by preference.
// allowed return values: active, inactive

Use the examples below as a reference point.
INSERT INTO results (compound, group_label) VALUES
  ('CCOc1ccccc1C(=O)Nc1ccc(S(=O)(=O)N2CCCCC2c2cccnc2)cc1 (configuration not stated)', 'inactive'),
  ('COc1ccc(CC(=O)NCC(=O)N/N=C/c2cc(Br)ccc2OC)cc1', 'inactive'),
  ('CN(Cc1ccccc1)C(=O)c1cc2c(=O)n(C)c3ccccc3c2s1', 'inactive'),
  ('CCOc1nc(NCCN2CCOCC2)nc(Nc2ccc(C)cc2)n1', 'inactive'),
  ('COc1ccc(S(=O)(=O)c2cn(C)c3cc(N4CCCCC4)c(F)cc3c2=O)cc1', 'inactive');

input: Which outcome did this test record for the compound O=C(NCCN1CCOCC1)Nc1cccc(Cl)c1 ?
output: inactive

input: Another: Cc1ccc(C)c(N2CCN(C(=O)CCc3c(C)nc4c(c3C)c(=O)n(C)c(=O)n4C)CC2)c1
output: inactive

input: Another: COCCn1c(SCC(=O)Nc2nc(C)cs2)nnc1C(C)C
output: inactive

input: Another: CCn1c(SCC(=O)Nc2nc(C)cs2)nnc1C(C)NC(=O)c1ccccc1 (configuration not stated)
output: active

====

- TARGET_ENTITY: Lysine-specific demethylase 4A (Homo sapiens) (UniProt O75164)
- Sequence (O75164 whole entry, looked up, the tested form may be a part): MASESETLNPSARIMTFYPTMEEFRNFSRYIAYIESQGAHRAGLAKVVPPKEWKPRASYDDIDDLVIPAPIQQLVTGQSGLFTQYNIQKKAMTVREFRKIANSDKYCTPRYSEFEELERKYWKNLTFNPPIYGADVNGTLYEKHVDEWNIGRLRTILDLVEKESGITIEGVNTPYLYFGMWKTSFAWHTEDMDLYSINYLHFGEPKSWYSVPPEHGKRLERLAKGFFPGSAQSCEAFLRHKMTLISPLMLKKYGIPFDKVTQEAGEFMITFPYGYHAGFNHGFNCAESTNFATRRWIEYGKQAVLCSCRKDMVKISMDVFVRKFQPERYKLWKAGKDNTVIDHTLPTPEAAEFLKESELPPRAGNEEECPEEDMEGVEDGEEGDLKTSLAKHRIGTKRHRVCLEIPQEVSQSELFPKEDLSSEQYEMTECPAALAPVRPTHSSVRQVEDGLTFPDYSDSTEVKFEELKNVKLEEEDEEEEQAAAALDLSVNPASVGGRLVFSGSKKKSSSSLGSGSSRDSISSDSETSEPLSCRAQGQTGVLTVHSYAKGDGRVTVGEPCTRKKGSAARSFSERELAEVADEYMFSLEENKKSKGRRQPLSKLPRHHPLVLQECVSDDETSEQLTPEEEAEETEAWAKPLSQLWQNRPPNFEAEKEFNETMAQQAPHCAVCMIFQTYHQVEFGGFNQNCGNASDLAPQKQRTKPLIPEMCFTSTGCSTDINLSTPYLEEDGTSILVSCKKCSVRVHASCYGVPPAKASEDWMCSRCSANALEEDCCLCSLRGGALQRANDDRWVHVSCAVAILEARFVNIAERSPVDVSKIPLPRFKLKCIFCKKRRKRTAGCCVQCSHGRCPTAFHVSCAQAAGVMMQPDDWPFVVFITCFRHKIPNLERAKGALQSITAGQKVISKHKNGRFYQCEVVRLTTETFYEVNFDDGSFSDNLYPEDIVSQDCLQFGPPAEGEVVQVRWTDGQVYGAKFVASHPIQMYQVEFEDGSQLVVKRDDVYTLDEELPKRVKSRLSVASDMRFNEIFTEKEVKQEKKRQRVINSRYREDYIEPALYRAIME
- ASSAY_METHOD_TEXT: qHTS Assay for Inhibitors of JMJD2A-Tudor Domain; note: nearly all actives have a fitted effect of over 50% in size; note: potency is the fitted concentration of half-maximal effect
- RUN_CONDITIONS: AlphaScreen JMJD2A-Tudor / H3K4me3 peptide binding; series mostly up to 114 µM
Hit rate of the full screen: of about 390,000 compounds, about 17,000 (4.4%) were called active. Inconclusive results (about 8%) are left out. The full list was thinned out, with actives kept by preference.
EXPERIMENTAL_READOUT: Potency

Below, each entry is followed by its recorded Potency result.
INSERT INTO assay_data (compound, experimental_readout, value) VALUES
  ('CCCCOCCCNC(=O)c1ccccc1OCC', 'Potency', 'inactive'),
  ('C[C@H](NC(=O)c1ccccc1)C(=O)OCC(=O)c1c[nH]c2ccccc12', 'Potency', 'inactive'),
  ('COc1ccc2c(c1)c(=O)c(S(=O)(=O)c1ccc(F)cc1)cn2CC(=O)Nc1ccc(C)cc1C', 'Potency', 'inactive'),
  ('O=C(c1ccc(Cl)cc1)c1ccc(OCC(O)CN2CCCCC2)cc1 (configuration not stated)', 'Potency', 'inactive');

input: Query: Potency; subject: Cc1nc(Cl)c(C#N)c2c1CCCC2
output: inactive

input: Another: COCc1c(N)c(C)nc(Cl)c1C#N
output: 11.2 µM (active)

input: Another: COc1cc(/C=C2\C(=N)N3N=C(CC(=O)N4CCOCC4)SC3=NC2=O)cc(OC)c1OC
output: inactive

input: Another: COc1ccc2c(c1OC)C(=O)N(c1ncn[nH]1)C2
output: 39.8 µM (active)

input: Another: O=C1CN(Cc2ccccc2)S(=O)(=O)c2ccccc21
output: 79.4 µM (active)

====

- TARGET_ENTITY: Lysine-specific demethylase 4A (Homo sapiens) (UniProt O75164)
- ASSAY_METHOD_TEXT: qHTS Assay for Inhibitors of JMJD2A-Tudor Domain; note: nearly all actives have a fitted effect of over 50% in size
- RUN_CONDITIONS: AlphaScreen JMJD2A-Tudor / H3K4me3 peptide binding; series mostly up to 114 µM
- Description: JMJD2A is a jumonji-domain-containing lysine demethylase that uses Fe(II) together with 2-OG to effect oxidative demethylation of histones. Methylation is one of many […] modification that affect epigenetic transcription. […] A quantitative high throughput AlphaScreen has been developed to identify small molecule inhibitors based on a protocol published by NCGC and SGC [4]. […] [2] Yasgar, et al. Compound Management for Quantitative High-Throughput Screening. […]
About 17,000 (4.4%) of roughly 390,000 compounds were called active. About 8% were inconclusive and are not listed. Calls come from the whole dose curve; as a rule, active = well fitted inhibition curve with a large enough effect; inconclusive = small, poorly fitted or top-dose-only effect; inactive = no such curve, though single readings can be large or run the other way. Many of the other results were omitted from the sample, so actives are more common in it than they were.
// allowed return values: true (1) (active), false (0) (inactive)

Use the examples below as a reference point.
INSERT INTO assay_data (compound, target_entity, group_label) VALUES
  ('CCC(=O)c1ccc(OCC(=O)Nc2ccc(N3CCCCC3)cc2)cc1', 'Lysine-specific demethylase 4A (Homo sapiens) (UniProt O75164)', 'false (0)'),
  ('O=C(c1cc(-c2ccc(Cl)cc2)on1)N1CCN(c2ccccc2)CC1', 'Lysine-specific demethylase 4A (Homo sapiens) (UniProt O75164)', 'false (0)'),
  ('Fc1cccc(-n2ncc3c2ncn2nc(-c4ccccc4Cl)nc32)c1', 'Lysine-specific demethylase 4A (Homo sapiens) (UniProt O75164)', 'false (0)'),
  ('CCCCCCC1(C)NC(c2ccc3c(c2)OCO3)=CC(c2ccccc2O)N1 (stereo unspecified)', 'Lysine-specific demethylase 4A (Homo sapiens) (UniProt O75164)', 'false (0)'),
  ('Cc1ccc(-c2onc(C)c2C)cc1S(=O)(=O)Nc1ccccn1', 'Lysine-specific demethylase 4A (Homo sapiens) (UniProt O75164)', 'false (0)');

Pending compound:
input: Which outcome did this test record for the compound Cc1ccc2[nH]c(C)c(CCNC(=O)NC3CCCCC3)c2c1 ?
output: false (0)

====

- TARGET_ENTITY: Lysine-specific demethylase 4A (Homo sapiens) (UniProt O75164)
- ASSAY_METHOD_TEXT: qHTS Assay for Inhibitors of JMJD2A-Tudor Domain; note: nearly all actives have a fitted effect of over 50% in size
- RUN_CONDITIONS: AlphaScreen JMJD2A-Tudor / H3K4me3 peptide binding; series mostly up to 114 µM
Hit rate of the full screen: of about 390,000 compounds, about 17,000 (4.4%) were called active. About 8% were inconclusive and are not listed. Calls come from the whole dose curve; as a rule, active = well fitted inhibition curve with a large enough effect; inconclusive = small, poorly fitted or top-dose-only effect; inactive = no such curve, though single readings can be large or run the other way. Shown is part of a subset that was picked to be rich in actives.
// allowed return values: active, inactive

Use the examples below as a reference point.
INSERT INTO assay_data (molecule, group_label) VALUES
  ('COc1ccccc1CNC(=O)C(=O)NCC(c1cccs1)S(=O)(=O)c1cccs1 (stereo unspecified)', 'inactive'),
  ('Fc1ccc(CSc2nc(NCc3ccccc3)c3ccccc3n2)cc1', 'inactive'),
  ('Cc1ccc(CCNC(=O)Cn2c(-c3cccs3)cc3cc(F)ccc32)cc1', 'inactive'),
  ('Cc1ccc(CNC(=O)Cn2c(=O)ccc3cc(S(=O)(=O)N4CCCC4)ccc32)cc1', 'inactive'),
  ('Cc1sc2ncn(CC(=O)NCCN(C)C)c(=O)c2c1S(=O)(=O)N1CCC(C)CC1', 'active');

Pending molecule:
input: Which outcome did this test record for the molecule N#CN1CCC(NS(=O)(=O)c2cccc(F)c2)C1 (stereo unspecified) ?
output: inactive

====

- TARGET_ENTITY: Lysine-specific demethylase 4A (Homo sapiens)
- ASSAY_METHOD_TEXT: qHTS Assay for Inhibitors of JMJD2A-Tudor Domain; note: nearly all actives have a fitted effect of over 50% in size
- RUN_CONDITIONS: AlphaScreen JMJD2A-Tudor / H3K4me3 peptide binding; series mostly up to 114 µM
About 17,000 (4.4%) of roughly 390,000 compounds were called active. Another 8% or so got no clear call; they are omitted. Calls come from the whole dose curve; as a rule, active = well fitted inhibition curve with a large enough effect; inconclusive = small, poorly fitted or top-dose-only effect; inactive = no such curve, though single readings can be large or run the other way. The sample as a whole holds a higher share of actives than the screen did.
// allowed return values: 1 (yes) = active, 0 (no) = inactive

Use the examples below as a reference point.
INSERT INTO measurements (line_notation, target_entity, group_label) VALUES
  ('O=C(COC(=O)c1ccccc1F)Nc1cc(S(=O)(=O)N2CCOCC2)ccc1N1CCCC1', 'Lysine-specific demethylase 4A (Homo sapiens)', '0 (no)'),
  ('Cc1ccc(C)c(N2CCN(Cc3nnc(-c4ccccc4)o3)CC2)c1', 'Lysine-specific demethylase 4A (Homo sapiens)', '0 (no)'),
  ('COc1cccc(-n2c(=S)sc3c(=O)n(-c4ccccc4C)c(SCC(=O)O)nc32)c1', 'Lysine-specific demethylase 4A (Homo sapiens)', '0 (no)');

input: Which outcome did this test record for the compound COc1ccccc1-n1c(=S)[nH]c2c(sc(=S)n2-c2ccc(C)cc2C)c1=O ?
output: 1 (yes)

input: Another: CCN(CCCNC(=O)c1cc2c(=O)n(CC)c3ccccc3c2s1)Cc1ccccc1
output: 0 (no)

input: Another: COc1cccc(-n2c(=S)sc3c(=O)n(-c4ccccc4OC)c(SCC4OCCO4)nc32)c1
output: 0 (no)

====

- TARGET_ENTITY: Lysine-specific demethylase 4A (Homo sapiens)
- ASSAY_METHOD_TEXT: qHTS Assay for Inhibitors of JMJD2A-Tudor Domain; note: nearly all actives have a fitted effect of over 50% in size
- RUN_CONDITIONS: AlphaScreen JMJD2A-Tudor / H3K4me3 peptide binding; series mostly up to 114 µM
- Source text: JMJD2A is a jumonji-domain-containing lysine demethylase that uses Fe(II) together with 2-OG to effect oxidative demethylation of histones. Methylation is one of many […] modification that affect epigenetic transcription. […] A quantitative high throughput AlphaScreen has been developed to identify small molecule inhibitors based on a protocol published by NCGC and SGC [4]. […] [2] Yasgar, et al. Compound Management for Quantitative High-Throughput Screening. […]
The whole screen tested about 390,000 compounds, of which about 17,000 (4.4%) were called active. Not shown: some 8% with an inconclusive outcome. Calls come from the whole dose curve; as a rule, active = well fitted inhibition curve with a large enough effect; inconclusive = small, poorly fitted or top-dose-only effect; inactive = no such curve, though single readings can be large or run the other way. The sample as a whole holds a higher share of actives than the screen did.
// allowed return values: 1.0 (active), 0.0 (inactive)

Use the examples below as a reference point.
INSERT INTO assay_data (line_notation, target_entity, group_label) VALUES
  ('COc1ccc(CNc2nc(-c3ccc(Cl)cc3)cc(C(F)(F)F)n2)cc1', 'Lysine-specific demethylase 4A (Homo sapiens)', 0.0),
  ('COC(=O)CCSc1nccn1Cc1ccccc1', 'Lysine-specific demethylase 4A (Homo sapiens)', 1.0);

input: Which outcome did this test record for the compound Cc1ccccc1-c1n[nH]c(=S)n1C ?
output: 1.0

input: Another: CCn1c(C(=O)Nc2cc(Cl)ccc2C)cc2sc(Cl)cc21
output: 0.0

input: Another: COC(=O)c1ccc(OC)c(Cn2c(=O)n(Cc3ccccc3)c(=O)c3c2c2cc(OC)ccc2n3C)c1
output: 0.0

input: Another: COc1ccc(N2CCN(c3cc(C)nc4nncn34)CC2)cc1
output: 0.0

input: Another: Cc1c(Cl)cccc1NC(=O)C(=O)NCCc1csc2nc(-c3ccccc3F)nn12
output: 0.0

input: Another: O=c1c(NCc2cccs2)nccn1-c1ccccc1
output: 0.0

input: Another: O=C(CSc1nccn1Cc1ccc(Cl)cc1)NCc1ccccc1
output: 0.0

input: Another: CCCCNC(=O)CSc1nccn1Cc1ccccc1
output: 0.0

input: Another: Cn1c(-c2sc3cc(C(F)(F)F)cnc3c2-c2ccccc2)n[nH]c1=S
output: 0.0
